- Experimental Details: yeast display, Sf9 membrane polyspecificity reagent, FACS + sequencing; frameworks hold sequencing errors
Experimental Readout: polyreactivity (PSR sort gate)

QVQLVESGGGLVQAGGSLRLSCAASGIIFAYNAMGWYRQAPGKERELVAAISVIAGTTYYADSVKGRFTISRDNAKNTVYLQMNSLKPEDTAVYYCAVDSVQYGGGYERLHELYYWGQGTQVTVSS	low polyreactivity
QVQLVESGGGLVQAGGSLRLSCAASGRIFLRYVMGWYRQAPGKERELVAAIRSNGGSTYADSVKGRFTISRDNAKNTVYLQMNSLKPEDTAVYYCAARYFNTKGSFVVGYGYWGQGSQVTVSS	high polyreactivity
QVQLVESGGGLVQAGGSLRLSCAASGSIITYYAMGWYRQAPGKDSELVAVISASGGRTYYADSVKGRFTISRDNAKNTVYLQMISLKPEDTAVYYCAAYQSIYSFKFGYWGQGTQVTVSS	high polyreactivity
QVQLVESAGGLVQAGGSLRLSCAASGNFGYNAIAWNRQAPGKETELVAAITSSGTSTYYADSVKGRLTISRDNAKNTVYLQMNSLKPEDTAVYYCAALPSGTWTGFGYWGQGTQVTVSS	low polyreactivity
QVQLVESGGGLVQAGGSLRLSCAASGINFRLNAMGWYRQAPGKERELVAAIRRRGGSTYYADSVKGRFTISRDNAKNTVYLQMNSLIPEDTAVYYCAKDPHGSDFGYWGQGNQVTVSS	low polyreactivity
QVQLVESGGGLVQEGGSLRLSCAASGSIFQYYALGWYRPAPGKERELVAAISSGGRTNYADSVKGRFTISRDNAKNSVYLQMNSLKPEDTAVYYCAAARYYYQVYRWEYDYWGQGTQVTVSS	high polyreactivity
QVQLVESGGGLVQTGGILRLSCAASGRIFYYNAMGWYRQEPGKERDFFAAITSSSGSSTYYADSVKGRFTISLDNAKNTVYLQMNSLKPEVTAVYYCAAVGTFIIRYLSRSSYWGQGTQVTVSS	low polyreactivity
QVQLVESGGGLVQAGGSLRLSCAASGRTFWANAMGWYRQAPGKERELVAAITIGGRTYYADSVKGRFTISRDNAKNTVYIQMNSLKPEDTAVYYCNAGSRRPFPAESGYWGQGTQVTVSS	low polyreactivity
QVQLVESGGGLVQAGGSLRLSCAASGSIFLIYAMGWYRQAPGKERELVAAISSGGSTYYADSVKGRFTISRDNAKNTVYLQINSLKPEDTAVYYCATYSTSVAYHLYYWGQGTQVTVSS	low polyreactivity
QVQLVESGGGLVQAGRSLRLSCAASGSTFSSYGMGWYRQAPGKDRELDASITIRGGSTYYADSVKGRFTISRDNAKTTVCIQMNSLKPEDTAVYYCAADVTNRGTWVIYGYYYWGQGTQVTVSS	low polyreactivity
QVQLVESGGGLVQAGGSLRLSCAASGRIFVRYAMGWYRQAPGKERELVAAISWSAGSTYYADSVKGRFTISRDNAKNTVYLQMNSLKPEDTAVYYCAAEYGNYETGHYGIYDYWGQGTQVTVSS	low polyreactivity
QVQLVESGGGLVQEGGSLRLSCAASGRIFNGYAMGCYRQAPGKERELVAAINSSGGSTYYADSVKGRFTISRDNAKNTVYLQMNSLKPEDTAVYYCARVSYHYRTYDYWGQGTQVTVSS	high polyreactivity
QVQLVESGGGLVQAGGSLRLSCAASGRTFKRYAMGWYRQAPGKERELVAAISWSGTSTHYADSVKGRFTISRDNAKNTVYLQMNSLKPEDTAVYYCAARRYPVLNYDYWGQGTQVNVSS	high polyreactivity
QVQLEESGGGLVQAGGSLRLSCAASGFIFYRYAMGWYRQAPGKERELVAALTTGGDRTYYADSVKGRFTISRDNAKNTVYLQMNSLKPEDPAVYYCATLWSYYYATIYLDGYDYWGQGTQVTVSS	high polyreactivity
QVQLVESGGGLVQAGGSLRLSSAASGSTFVTYAMGWYRQAPGKERELVAAISRRGGSTYYADSVKGRFTISRDNAKNTVYLQMNCLKPEDTAVYYCAPVQGSYSRDGADDYWGQGTQVTVSS	high polyreactivity

###

- Experimental Details: yeast display, Sf9 membrane polyspecificity reagent, FACS + sequencing; frameworks hold sequencing errors
Experimental Readout: polyreactivity (PSR sort gate)

QVQLVESGGGLVQAGGSLRLSCAASGRIFRNYAMGWYRQAPGKERELVAAISTRSGSTYYADSVKGRFTISRDNAKNTVYLQMNSLKPEDTAVYYCNKVSVGRYYALYYWGQGTKVTVSS	high polyreactivity
QVKLVESGGGLVQAGGSLRLSCAASGFTIRSYFIVWNRQAPGKERELVAAITRRGGRTYYADSVKGRFTISRDNAKNTVFLQMNSLKPEDTAVYYCAAGPYLVDVDYWGQGTQVTVSS	high polyreactivity
QVQRVESGGGLVQAGGSLRLSCAASGITIYHYAMGCYRQAPGKERELVAAISRSGGSTSYADSVKGRFTISRDNAKNTVYLQMNSLKPEDTAVYYFAARLVRESDPLGYWGQGTQVTVSS	high polyreactivity
QVQLVESGGGLVQAGGSLRLSCAASGRIFYYYAMGWYRQAPGTERELVASINSVGTTTYADSVKGRFTISRDNAKNTVYLEMNSLKPEDTAVYYCARDTGSIYYDGYEYDYWGQGTQVTVSS	low polyreactivity
QVQLVESGGGLVQAGGSLRLSCAASGRIFDSNDMGWYRQAPGKEREFVAAITSSGGSTYYADSVKGRFTISRDNAKNTVYLQMNSLKPEDTAVYYCAARVYPRPQSYDKRYYWGQGTQVTVSS	low polyreactivity

###

- Experimental Details: yeast display, Sf9 membrane polyspecificity reagent, FACS + sequencing; frameworks hold sequencing errors
Experimental Readout: polyreactivity (PSR sort gate)

QVQLVESGGGLVQAGGSLRLSCAASGRTFYYYTMGWYRQAPGKDRELVAAIRGSGGSTYYADSVKGRFTISRDNAKNTVYLQMNSLKPEVTAVYYCNATRRRSARYGYISAYDYWGQGTQVTVSS	high polyreactivity
QVQLVESGGRLVQAGGSLRLSGADSGSIFSSYAMGWNRPAPGKERELVAAISSSGDSTYADSEKGRFTISRDNAKNSVDLQMNSLKPEDTAVYYCAVGGAGSDDYWGQGTQVTVSS	low polyreactivity
QVQLVESGGGLVQAGGSLRLSCPASGRTFHYYTLGWYRQSPGKERELVARISLGVGSTYYADSVKGRFTISRDIAKNTVDLQMNSLKPEDTAVYYCNAVWYKSVVKGVYGRVDWGQGTQVTVSS	low polyreactivity
QVQLVESGGGLVQAGGSLRLSCAASGFTFGVYAMGWYRQAPGKERELVAAITWGDGSTYYADSVKGRFTISRDNAKNTVYLQMYSLKPEDTAVYYCIAVTRRHIYYYWGQGTQVTVSS	high polyreactivity
QVQLVESGGGLVQAGGSLRLSCAASGSISADDVMGWYRQAPGKERELVAAISVSAGTTYYADSVKGRFTISRDNAKNSVYLQMNSLKPEDSAVYYCAATDSYYWLYYYGYSPGNDYWGQGTQVNVSS	low polyreactivity

###

- Experimental Details: yeast display, Sf9 membrane polyspecificity reagent, FACS + sequencing; frameworks hold sequencing errors
Experimental Readout: polyreactivity (PSR sort gate)

QVQHVESGGGLVQAGGSLRLSCAASGFIFWYYAMGLYRQAPGKERELVADISSGGSTNYADSVKGRFTISRDNAKNTVYLQMNSLKPDDTAVYYCAADTFRRDDYWGQGTQVTVSS	low polyreactivity
QVQLVESGGGLVQAGGSLRLSCAASGSIFPRNAMGWYRQAPGKERELVAGISSGGSTNYADSVKGRFTISRDNAKNTVYLQMNSLNPEDTAVYYCAARQWIRNLGFGYSIYNYWGQGTQVTVSS	high polyreactivity
QVQLVESGGRLVQAGGSLRLSCAASGFTFYGYAMGWYRQAPGKERELVAAISRGGGRTYYADSVKGRFTISRDNAKNTVYLQMNSLKPEDTAVYYCAAQGGSKTSSRSYGYWGQGTQVTVSS	high polyreactivity
QVQLVESGGGLVQAGGSLRLSCAASGRTFTRYTMGWYRQAPGKERELVAAISSGGSTTYADSVKGRFTISRDNAKNTVYLQMNSLKPEDTAVYYCAAGLVYRGYRRDYWGQGTQVTVSS	low polyreactivity
QVQLVESGGGLVQAGGSLRLICAASGSIFRLNTMGWYRQAPGKERELVAAIFTSGGSTYADSVKGRFTISRDNAKNTVYLQMNSLKPEDTAVYYCAGMDYWGQGTQVTVSS	low polyreactivity
QVQLVESGGGLVQAGGSLRLSCAASGLTVLQNAMGWYRQAPGKEWELVAAINIGTNTYADSVKGRFTSARDNAKNTVYLQMNSLKPEDTAVYYCATVDTVLVRPVGYDYWGQGTQVTVSS	low polyreactivity

###

- Experimental Details: yeast display, Sf9 membrane polyspecificity reagent, FACS + sequencing; frameworks hold sequencing errors
Experimental Readout: polyreactivity (PSR sort gate)

QVQLVEYVELLVQAVGILSLSCAASGLTIYYYIMGWYLHAPRKEREFLAAISNSGCRPYYADSVNGRFTISRDNAKNTDYLQMNSLIPEDTPVYYCAAQSRYGGKFLYWGQGTQVTVSS	high polyreactivity
QVQLVESGGGLVQAGGSLRLSCAASGITFYVYAMGWYRQAPGKERELVASITSGGGSTDYADSVKGRFTISRDNAKNTVYLQMNSLKPEDTAVYYCAARYPLLNQLYDFDYWGQGTQVTVSS	low polyreactivity
QVQLHESGGGLVQARGSLRLSCAASGTSSNAGPMGWYRQAPGKEREFVAGIGVGSNTNYADSVKGRYTIIRDNAKNTVYLQMNSLKPEDTAVYYCAVGGYAPLGRPYWGQGTQVTVSS	low polyreactivity
QVQLVESGGGLVQAGGSLRLSCAASGSTFAGYAMGWYRQPPGKERELVAAISYSGGTTYYADSVKGRFTISRDNAKNTVYLQMNSLKPEDTAVYYCAARKKFKTPSYDMYYWGQGTQVTVSS	high polyreactivity
QVQLEESGGGLVHAGGSLRLSCAASGSTFGYYTMGWYRQAPRKERELVAAITWSGGSTYYADSVKGRFTISLDNAKNTVYLQMNSLKPEDSAVYYCAADDYWTPFGYWGQGTQVTVSS	low polyreactivity
